- tested.system: Lck (Homo sapiens)
- Construct: Kinases are expressed as either kinase domains or full length constructs; made in house
- Sequence (P06239 whole entry, species assumed, the tested form may be a part): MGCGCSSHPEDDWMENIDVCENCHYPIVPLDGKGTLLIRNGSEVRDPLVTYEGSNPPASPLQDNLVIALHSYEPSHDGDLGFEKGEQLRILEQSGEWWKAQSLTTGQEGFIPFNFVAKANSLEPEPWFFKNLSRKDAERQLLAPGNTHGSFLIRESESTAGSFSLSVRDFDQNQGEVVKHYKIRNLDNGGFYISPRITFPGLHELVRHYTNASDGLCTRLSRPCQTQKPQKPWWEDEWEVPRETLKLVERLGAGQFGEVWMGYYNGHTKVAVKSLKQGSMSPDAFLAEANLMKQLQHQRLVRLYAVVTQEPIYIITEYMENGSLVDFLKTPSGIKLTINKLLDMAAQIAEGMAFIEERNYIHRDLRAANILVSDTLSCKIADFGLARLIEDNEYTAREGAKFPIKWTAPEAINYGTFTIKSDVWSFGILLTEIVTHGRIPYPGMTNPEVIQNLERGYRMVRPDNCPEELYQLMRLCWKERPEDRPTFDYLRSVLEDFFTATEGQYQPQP
- test.protocol: Kinase inhibition assay (33P transfer), Lck
- Format: biochemical
- test.settings: Table 3; read-out: Lck-1
# Lookup of reported IC50 keyed by entry

// solved cases for IC50 follow
c1ccc(-c2ncnc(Nc3ccc(OCCCN4CCOCC4)cc3)n2)cc1
> 11.5 µM
Nc1nc2ccccc2n1-c1ncnc(Cl)n1
> 18.2 µM
CCOc1ccc(Nc2ncnc(Nc3ccc(C)c(O)c3)n2)cc1OCC
1.05 to 6.29 µM
COc1cc(Nc2ncnc(-n3cc(C)c4ccccc43)n2)cc(OC)c1OC
8.94 to 11.5 µM

Now consider the entry below.
Give the measured IC50 of `O=c1[nH]c2ccccc2n1-c1ncnc(Nc2cccc(OC(F)(F)F)c2)n1` .
> 11.6 µM

---

- tested.system: IGFR-1 (Homo sapiens, UniProt P08069)
- Construct: Kinases are expressed as either kinase domains or full length constructs; made in house
- Sequence (P08069 31-1367): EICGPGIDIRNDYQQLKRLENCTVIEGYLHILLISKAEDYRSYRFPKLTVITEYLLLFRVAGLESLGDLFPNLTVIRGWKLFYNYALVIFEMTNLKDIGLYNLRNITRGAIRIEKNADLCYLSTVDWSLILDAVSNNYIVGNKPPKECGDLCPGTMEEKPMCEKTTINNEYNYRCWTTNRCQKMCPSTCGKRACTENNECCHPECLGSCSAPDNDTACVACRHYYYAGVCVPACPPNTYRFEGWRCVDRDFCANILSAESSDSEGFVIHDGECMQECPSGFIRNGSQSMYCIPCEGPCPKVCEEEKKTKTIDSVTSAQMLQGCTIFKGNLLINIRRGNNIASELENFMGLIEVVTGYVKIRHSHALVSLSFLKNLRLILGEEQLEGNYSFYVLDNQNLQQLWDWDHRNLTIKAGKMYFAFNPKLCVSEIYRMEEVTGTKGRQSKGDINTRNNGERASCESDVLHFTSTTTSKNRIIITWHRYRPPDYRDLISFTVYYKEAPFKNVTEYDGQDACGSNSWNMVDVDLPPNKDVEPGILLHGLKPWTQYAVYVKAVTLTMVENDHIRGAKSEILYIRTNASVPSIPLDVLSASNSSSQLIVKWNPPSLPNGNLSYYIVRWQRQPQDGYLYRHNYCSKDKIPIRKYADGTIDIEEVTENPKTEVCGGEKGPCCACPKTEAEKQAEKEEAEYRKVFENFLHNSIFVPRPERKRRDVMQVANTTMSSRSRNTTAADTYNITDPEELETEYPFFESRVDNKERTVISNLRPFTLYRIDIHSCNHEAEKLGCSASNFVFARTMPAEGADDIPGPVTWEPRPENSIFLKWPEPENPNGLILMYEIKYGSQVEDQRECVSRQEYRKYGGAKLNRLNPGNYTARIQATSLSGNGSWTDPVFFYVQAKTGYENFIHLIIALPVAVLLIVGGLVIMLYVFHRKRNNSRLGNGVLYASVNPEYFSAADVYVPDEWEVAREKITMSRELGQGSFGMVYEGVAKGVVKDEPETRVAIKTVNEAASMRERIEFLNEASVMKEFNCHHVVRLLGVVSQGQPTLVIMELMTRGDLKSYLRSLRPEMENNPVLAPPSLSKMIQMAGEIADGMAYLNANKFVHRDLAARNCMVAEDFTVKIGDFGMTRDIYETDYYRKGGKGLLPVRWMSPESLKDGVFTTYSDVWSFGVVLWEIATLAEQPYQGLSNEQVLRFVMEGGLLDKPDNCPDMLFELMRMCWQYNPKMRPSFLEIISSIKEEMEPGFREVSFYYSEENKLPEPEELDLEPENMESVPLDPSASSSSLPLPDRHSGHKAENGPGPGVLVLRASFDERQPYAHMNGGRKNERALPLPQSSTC
- test.protocol: Kinase inhibition assay (33P transfer), IGFR-1
- Type: biochemical
- test.settings: Table 2, kinase inhibition class
attribute.measured: IC50

// solved cases for IC50 follow
COc1cc(Nc2ncnc(-n3c(Nc4ccc(C(C)C)cc4)nc4ccccc43)n2)cc(OC)c1OC
> 8800 nM
COc1cc(Nc2ncnc(NC(=O)Nc3ccccc3)n2)cc(OC)c1OC
< 1010 nM

Now consider the entry below.
Give the measured IC50 of `NC(=O)c1ccc(Nc2ncnc(-n3c(N)nc4ccccc43)n2)cc1` .
< 1150 nM

---

# Lookup of reported IC50 keyed by entry
- tested.system: AKT (Homo sapiens)
- Construct: Kinases are expressed as either kinase domains or full length constructs; made in house
- Sequence (Q9Y243 whole entry, the tested form may be a part): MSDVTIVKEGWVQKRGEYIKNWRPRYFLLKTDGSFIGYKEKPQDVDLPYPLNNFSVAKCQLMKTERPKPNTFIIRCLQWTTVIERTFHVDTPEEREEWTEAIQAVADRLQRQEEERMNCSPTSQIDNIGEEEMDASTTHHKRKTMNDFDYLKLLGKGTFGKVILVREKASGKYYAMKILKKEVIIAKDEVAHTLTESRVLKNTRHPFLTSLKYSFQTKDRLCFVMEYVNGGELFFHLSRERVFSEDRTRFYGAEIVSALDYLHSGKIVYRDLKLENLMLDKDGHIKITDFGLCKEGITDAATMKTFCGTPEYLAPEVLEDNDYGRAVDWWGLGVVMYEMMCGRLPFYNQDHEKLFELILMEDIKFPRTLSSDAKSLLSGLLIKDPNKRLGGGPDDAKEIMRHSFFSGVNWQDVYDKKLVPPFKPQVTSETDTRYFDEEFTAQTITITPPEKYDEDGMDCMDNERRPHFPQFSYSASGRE
- test.protocol: Kinase inhibition assay (33P transfer), AKT
- Format: biochemical
- test.settings: Table 2, class symbols A-E; read-out: AKT3-1

COc1cc(Nc2ncnc(-c3cccnc3Nc3ccc(Cl)cc3C)n2)cc(OC)c1OC [Compound 834]
> 9.4 µM

Give the measured IC50 of COc1ccc(Nc2ncnc(N(C)c3ccc4c(cnn4Cc4ccccc4)c3)n2)cc1OC [Compound 669] .
> 9.62 µM

Give the measured IC50 of Cc1cccc(Nc2ncnc(N(C)c3ccc4c(cnn4Cc4ccccc4)c3)n2)c1 [Compound 668] .
> 10.7 µM

Give the measured IC50 of Cc1ccc2c(c1)CCCN2c1ncnc(Nc2c(C)ccc3ccccc23)n1 [Compound 854] .
> 11.8 µM

Give the measured IC50 of COc1cc(Nc2ncnc(Nc3cc(-c4ccc(C(=O)N(C)C)cc4)n[nH]3)n2)cc(OC)c1OC [Compound 993] .
> 9.17 µM

Give the measured IC50 of COc1cc(Nc2ncnc(-c3cccnc3Nc3cccc(Oc4ccccc4)c3)n2)cc(OC)c1OC [Compound 840] .
> 8.61 µM

Give the measured IC50 of Nc1nc2ccccc2n1-c1ncnc(Nc2cccc(Cn3ccnn3)c2)n1 [Compound 960] .
> 11.7 µM

Give the measured IC50 of CN(c1cccc(Cl)c1)c1ncnc(Nc2ccc3nn(Cc4ccccc4)cc3c2)n1 [Compound 673] .
> 10.2 µM

Give the measured IC50 of O=C(O)Cc1cccc(Nc2ncnc(-c3cccnc3NCc3ccc(F)cc3)n2)c1 [Compound 1100] .
> 10.5 µM

Give the measured IC50 of COc1ccc(Nc2ncnc(N(C)c3ccc(C(=O)O)cc3)n2)cc1OC [Compound 860] .
> 11.8 µM

Give the measured IC50 of COc1ccc(Nc2ncnc(N(C)c3ccccc3Cl)n2)cc1OC [Compound 865] .
> 12.1 µM
